test system: CCRF-CEM leukemia; assay: NCI-60 one-dose screen, 48 h (100 = growth as untreated, 0 = no growth, -100 = all killed); conditions: 10 µM unless noted
Compounds without any hit were thinned out: in the full panel of roughly 83,000, 20% have a hit.
ASSAY_METRIC: growth (%)

INSERT INTO assay_data (cpd_smiles, readout_unit, recorded_measurement) VALUES
  ('O=C(COc1ccc(/C=C2\Oc3ccc4ccccc4c3C2=O)cc1)c1ccc([N+](=O)[O-])cc1', '%', -17.2),
  ('O=C(/C=C/c1cccc(Nc2ccnc3cc(Cl)ccc23)c1)c1ccc(Cl)cc1', '%', 24.4),
  ('CN(C)CCCNc1nn2c(=O)c3ccccc3nc2c2ccccc12', '%', 30.3),
  ('COC(=O)N/N=C/c1coc2ccc(Cl)cc2c1=O', '%', 90.7),
  ('COc1ccc(NS(=O)(=O)N2CCCCC2)cc1', '%', 89.6),
  ('COc1ccc2c(c1)sc1nc(-c3ccc(Br)cc3)cn12', '%', 109),
  ('Nc1ccc2c(c1)Cc1cc(Cl)c(Cl)cc1-2', '%', 32.2);

The measured values listed here are drawn from PubChem BioAssay (NCI).
